Provenance of the data: PubChem BioAssay (EPA / NIEHS)

test name: BSK_3C_Vis: BioMAP Diversity Plus: 3C Assay for Morphology Visualization (AID 2283025);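 further: fitted both ways so gain or loss versus DMSO counts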
measurement setup: primary human endothelial cells (HUVEC)
Active and inactive are the calls of the source. How the source made its calls: active means hit-call score of the fitted dose curve at least 0.9, where 1 is the maximum; inactive means score below 0.9.
Hello, when you answer, please use one of the following outcomes: 1 for active, 0 for inactive

[
  {
    "compound": "O=P(c1ccccc1)(c1ccccc1)c1ccccc1",
    "assigned class": 0
  }
]

Now let's try a different one.
Prompt: Which outcome did this test record for the compound "CCn1c2ccccc2c2cc(N)ccc21" ?
Response: 1

----------
test name: ATG_MRE_CIS: Attagene CIS-FACTORIAL HepG2 Assay for human Metal Responsive Element (MRE) (AID 2282954)
measurement setup: HepG2 MRE cis-reporter transcription, Attagene multiplex; actives raise or lower the signal
The source made the active and inactive calls. Rule for the calls: active = hit-call score of the fitted dose curve at least 0.9, where 1 is the maximum; inactive = score below 0.9.
Write down one outcome, taken from y for active, n for inactive

[
  {
    "molecule": "Cc1ccc(C(=O)O)o1",
    "assigned class": "n"
  }
]

Prompt: Entry "CC(=O)Nc1ccc(CC(=O)O)cc1" : call = ?
Response: n

Prompt: Quick one: "CC(=O)[C@H]1CC[C@H]2[C@@H]3CC=C4C[C@@H](O)CC[C@]4(C)[C@H]3CC[C@]12C"
Response: n

Prompt: What about "O=C(O)CCSCCC(=O)O" ?
Response: n

Prompt: Also, "Nc1cc(N)cc(C(=O)O)c1" please.
Response: n

Prompt: Repeat for the following molecule: "CC(C)(C)C(=O)c1ccccc1"
Response: n

----------
test name: ATG_TGFb_CIS: Attagene CIS-FACTORIAL HepG2 Assay for human Transforming Growth Factor (TGF) (AID 2282967)
measurement setup: HepG2 Attagene CIS TGFb reporter, mRNA transcription; actives raise or lower the signal
Activity calls are given as the source filed them. Rule for the calls: active = hit-call score of the fitted dose curve at least 0.9, where 1 is the maximum; inactive = score below 0.9.
# valid calls are T = active, F = inactive; nothing else

[
  {
    "compound": "CCCC(=O)C(C)=O",
    "assigned class": "F"
  },
  {
    "compound": "CC1COc2ccccc2N1C(=O)C(Cl)Cl (centres undefined)",
    "assigned class": "F"
  },
  {
    "compound": "O=c1[nH]nnc2ccccc12",
    "assigned class": "F"
  }
]

Prompt: What did the test return for "CC(C)(COC(=O)c1ccccc1)COC(=O)c1ccccc1" ?
Response: T

Prompt: Ok, now CC(=O)OCCC(C)CC(C)(C)C (centres undefined)
Response: F

Prompt: Moving on to "C=C[Si](OCC)(OCC)OCC"
Response: F

----------
Read-out: Macrophage colony-stimulating factor (MCSF), CSF1 (gene 1435)
test name: BSK_LPS_MCSF: BioMAP Diversity Plus: LPS Assay for Macrophage colony-stimulating factor (MCSF) Biomarker Activity (AID 2283083)
measurement setup: primary human HUVEC with PBMC; actives raise or lower the signal
The source made the active and inactive calls. Rule for the calls: active = hit-call score of the fitted dose curve at least 0.9, where 1 is the maximum; inactive = score below 0.9.
Pick one and only one: active, inactive

Example cases with answers are listed next.
[
  {
    "query smiles": "NCCNCCN",
    "assigned class": "inactive"
  },
  {
    "query smiles": "OC[C@H]1O[C@H](O[C@]2(CCl)O[C@H](CCl)[C@@H](O)[C@@H]2O)[C@H](O)[C@@H](O)[C@H]1Cl",
    "assigned class": "inactive"
  },
  {
    "query smiles": "CCCCCCCCCC=O",
    "assigned class": "inactive"
  },
  {
    "query smiles": "CCn1c2ccccc2c2cc(N)ccc21",
    "assigned class": "active"
  }
]

Prompt: Record request — test call for "CC(C)(COC(=O)c1ccccc1)COC(=O)c1ccccc1"
Response: active

Prompt: And for "CC(=O)[C@H]1CC[C@H]2[C@@H]3CC=C4C[C@@H](O)CC[C@]4(C)[C@H]3CC[C@]12C" ?
Response: inactive

Prompt: Another compound: "C=CCOC(=O)CCC1CCCCC1"
Response: inactive

Prompt: // repeat for "COC(=O)c1ccc(C)cc1" and report
Response: inactive
